Measured values drawn from ChEMBL document CHEMBL2177019 for this set.

Please provide measured pIC50 for the entries that follow.
target: Butyrylcholinesterase (Equus caballus, UniProt Q9N1N9)
Sequence (Q9N1N9 whole entry): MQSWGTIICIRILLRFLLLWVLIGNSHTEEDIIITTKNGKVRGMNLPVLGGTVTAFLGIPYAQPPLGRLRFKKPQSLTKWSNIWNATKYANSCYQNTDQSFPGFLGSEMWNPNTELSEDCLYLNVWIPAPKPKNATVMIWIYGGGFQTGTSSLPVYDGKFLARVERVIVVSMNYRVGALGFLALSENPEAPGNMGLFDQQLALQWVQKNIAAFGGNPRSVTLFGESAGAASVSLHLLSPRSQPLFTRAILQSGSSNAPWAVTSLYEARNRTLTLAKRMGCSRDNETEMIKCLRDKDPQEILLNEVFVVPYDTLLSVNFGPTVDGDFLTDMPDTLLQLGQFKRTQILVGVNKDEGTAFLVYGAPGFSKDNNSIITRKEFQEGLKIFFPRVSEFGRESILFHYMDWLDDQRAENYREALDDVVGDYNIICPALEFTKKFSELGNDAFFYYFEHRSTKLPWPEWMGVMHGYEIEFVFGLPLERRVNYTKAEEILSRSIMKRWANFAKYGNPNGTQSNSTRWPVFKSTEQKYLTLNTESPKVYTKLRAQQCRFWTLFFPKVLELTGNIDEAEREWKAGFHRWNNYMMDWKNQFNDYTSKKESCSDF
Numbers only, as −log10 of the molar value.

Examples with answers:
>>> recorded_measurement("CCN(C)C(=O)Oc1cccc2[nH]cc(CCC(=O)OC)c12")
5.02
>>> recorded_measurement("CCN(C)C(=O)Oc1cccc2c1C(CCC(=O)O)CN2C.Cl (stereo unspecified)")
5.01
>>> recorded_measurement("CCCCN(C)C(=O)Oc1ccc2c(c1)N(C)CC2CCC(=O)OC (stereo unspecified)")
4.18
>>> recorded_measurement("CCN(C)C(=O)Oc1cccc2c1C(CCC(=O)OC)CN2C (stereo unspecified)")
5.17
>>> recorded_measurement("CCN(C)C(=O)Oc1ccc2c(c1)NCC2CCC(=O)O.Cl (stereo unspecified)")
5.00
>>> recorded_measurement("COc1ccc(N(C)C(=O)Oc2cccc3c2C(CCC(=O)O)CN3)cc1 (stereo unspecified)")
3.38
>>> recorded_measurement("CCN(C)C(=O)Oc1cccc2c1NCC2CCC(=O)OC (stereo unspecified)")
8.10
>>> recorded_measurement("CCN(C)C(=O)Oc1cccc2c1C(CCC(N)=O)CN2.Cl (stereo unspecified)")
5.07

Record pIC50 per entry; entries follow.
1. C#CCN[C@@H]1CCc2ccc(OC(=O)N(C)CC)cc21
2. CCN(C)C(=O)Oc1ccc2c(c1)N(C)CC2
3. CCN(C)C(=O)Oc1cccc2c1C(CCC(=O)O)CN2 (stereo unspecified)
4. CN(C)C(=O)Oc1cccc2c1CCN2.Cl
5. CCN(C)C(=O)Oc1cccc2c1C(CCN)CN2 (stereo unspecified)
6. COC(=O)CCC1CNc2cc(OC(=O)N(C)c3ccc(OC)cc3)ccc21.Cl (stereo unspecified)

stdout:
1. 6.32
2. 4.23
3. 6.52
4. 5.89
5. 6.70
6. 4.27

Record pIC50 per entry; entries follow.
1. CCN(C)C(=O)Oc1ccc2c(c1)NCC2CCC(=O)OC.Cl (stereo unspecified)
2. COC(=O)CCC1CNc2cccc(OC(=O)N(C)c3ccc(OC)cc3)c21.Cl (stereo unspecified)

stdout:
[5.41, 5.34]

Record pIC50 per entry; entries follow.
1. CCOC(=O)CCC1CNc2cccc(OC(=O)N(C)CC)c21 (stereo unspecified)
2. COC(=O)CCC1CN(C)c2cc(OC(=O)N(C)c3ccc(OC)cc3)ccc21.Cl (stereo unspecified)
3. CCN(C)C(=O)Oc1cccc2c1C(CCC(=O)OC)CN2.Cl (stereo unspecified)
4. CCN(C)C(=O)Oc1cccc2c1CCN2CCC(=O)OC
5. CCCCN(C)C(=O)Oc1cccc2c1C(CCC(=O)OC)CN2C.Cl (stereo unspecified)

stdout:
1: 6.25; 2: 3.43; 3: 6.52; 4: 6.15; 5: 3.71

Record pIC50 per entry; entries follow.
1. CCN(C)C(=O)Oc1cccc2c1CCN2.Cl
2. CCN(C)C(=O)Oc1ccc2c(c1)N(CCC(=O)OC)CC2
3. CCCCN(C)C(=O)Oc1ccc2c(c1)NCC2CCC(=O)OC.Cl (stereo unspecified)

stdout:
6.15
5.17
3.39
